tested_on: full-length HA from isolate A/Vietnam/1194/2004 (H5N1TV) on PER.C6 cells (influenza A virus A/Vietnam/1194/2004 …, UniProt Q80A26 6-554)
protocol_description: flow cytometry, transfected PER.C6 cells

binder	flow cytometry signal at 1 µg/ml
CR6257 (antibody, V domains shown) VH: QVQLVQSGAEVKKPGSSVKVSCKASGGPFRSYAISWVRQAPGQGPEWMGGIIPIFGTTKYAPKFQGRVTITADDFAGTVYMELSSLRSEDTAMYYCAKHMGYQVRETMDVWGKGTTVTVSS VL: QSALTQPAAVSGSPGQSITISCTGTSSDVGGYNYVSWYQQHPGKAPKLMIYEVSNRPSGVSNRFSGSKSGNTASLTISGLQAEDEADYYCSSYTSSSTYVFGTGTKVTVLG	284
CR6268 (antibody, V domains shown) VH: QVQLVQSGAEVKKPGSSVKVSCKASGGTFSSYAISWVRQAPGQGLEWMGGIMGMFGTTNYAQKFQGRVTITADEFTSAAYMELRSLRSEDTAVYYCARSSGYYPEYFQDWGQGTLVTVSS VL: QSVLTQPPSESVSPGQTASVTCSGHKLGDKYVSWYQQKPGQSPVLLIYQDNRRPSGIPERFIGSNSGNTATLTISGTQALDEADYYCQAWDSSTAVFGGGTKLTVLG	219
